System: CAKI-1 renal
Test Protocol: NCI-60 one-dose screen, 48 h (100 = growth as untreated, 0 = no growth, -100 = all killed)
Conditions: 10 µM unless noted
Method: Growth inhibition of the CAKI-1 human tumor cell line is measured as a screen for anti-cancer activity. Cells are grown in 96 well plates and exposed to the test compound for 48 hours. Compounds are tested at a single concentration, which is 10^-5 M for most compounds. The reported endpoint is percent growth (GI% or GIPRCNT), where numbers from 0 - 100% represent growth inhibition, and numbers from -100% - 0 represent cell death. For example, a value of 40 represents 60% growth inhibition. […]
The panel holds about 83,000 compounds, 20% with a hit somewhere; the sample as a whole holds those more often.
Recorded growth determines the group label, using label 0: < 20%; label 1: ≥ 20% and < 90%; label 2: ≥ 90%

Here are 10 compounds together with their reported answers.
O=c1oc2ccc(Cl)cc2c(=O)n1-c1ccc(I)cc1F ... label 0
COc1ccc(-c2cn[nH]c2-c2ccc(OC)c(O)c2)cc1 ... label 1
CN(O)c1nc(N(C)O)nc(N2CCOCC2)n1 ... label 0
O=C1NC(=O)C(=Cc2cn(Cc3cn(Cc4ccc(Cl)cc4Cl)nn3)c3ccccc23)C(=O)N1 ... label 1
O=C(c1ccccc1)N(CCc1ccc(Cl)cc1)C(=S)N(C(=O)c1ccccc1)c1ccccc1 ... label 2
CCOc1ccccc1CN1CCc2nc3cc(C(C)(C)C)[nH]n3c(=O)c2C1 ... label 2
CN1CCN(Cc2ccc(NC(=O)c3[nH]ncc3Nc3cc(OC4CCCC4)ncn3)cc2)CC1 ... label 0
O=C(N/N=C/c1ccccc1Cl)C(=O)Nc1cccc(C(F)(F)F)c1 ... label 2
O=C(NC1CCN(Cc2ccccc2)CC1)c1cc2nc(-c3ccc(Cl)s3)cc(C(F)(F)F)n2n1 ... label 2
C=C[C@@H]1CCC/C=C/[C@@H]2C[C@H](O)C[C@H]2[C@H](O)/C=C/C(=O)O1 ... label 0

We next turn to a different compound, shown below.
[in] Into which bin does this compound go? "CC1=C(CC(=O)c2cccc([N+](=O)[O-])c2)C(=O)c2ccccc2C1=O"
[out] label 0
